Test system: Lolium multiflorum
Assay: Herbicidal post-emergence action
Type: in vivo
Conditions: Lolium multiflorum, 504 h, post-emergence method, read-out: herbicidal effect against LOLMU (Lolium multiflorum)
measure: pest or weed control at 80 g/ha (%)
Answers are plain numbers, in %.

Answered cases to consult:
compound: CCOC(=O)OC1=C(c2c(CC)cc(C)cc2CC)C(=O)C2CC(=O)CC12 (centres unmarked) [I-c-17]
reported value: 40

compound: CCc1cc(C)cc(CC)c1C1=C(O)[C@H]2CC3(C[C@H]2C1=O)SCCCS3 [I-f-1]
reported value: 90

compound: CCc1cc(C)cc(CC)c1C1=C(OC(=O)OC)[C@H]2C[C@@]3(COC(C)(C)O3)C[C@H]2C1=O [I-c-1]
reported value: 100

Can you give me pest or weed control at 80 g/ha for all of these, one by one?
1. C=C1COC2(C[C@@H]3C(O)=C(c4c(CC)cc(C)cc4CC)C(=O)[C@@H]3C2)OC1 [I-a-3]
2. C=C1C[C@@H]2C(O)=C(c3c(CC)cc(C)cc3CC)C(=O)[C@@H]2C1 (stereo in doubt) [I-a-5]

A)
[100, 90]

Can you give me pest or weed control at 80 g/ha for all of these, one by one?
1. CCc1cc(C)cc(CC)c1C1=C(O)[C@H]2C[C@@]3(COC(C)(C)O3)C[C@H]2C1=O [I-a-1]
2. CCc1cc(C)cc(CC)c1C1=C(OC(C)=O)[C@H]2C[C@@]3(COC(C)(C)O3)C[C@H]2C1=O [I-b-1]
3. C=C1CC2C(=O)C(c3c(CC)cc(C)cc3CC)=C(OC(=O)OCC)C2C1 (centres unmarked) [I-c-5]
4. CCc1cc(C)cc(CC)c1C1C(=O)[C@H]2C/C(=N\OC)C[C@H]2C1=O (some centres unmarked) [I-a-18]
5. CCc1cc(C)cc(CC)c1C1=C(O)[C@H]2C[C@]3(COC(C)(C)O3)C[C@H]2C1=O [I-a-2]

A)
1. 100
2. 100
3. 90
4. 100
5. 100

Q) Quick one: pest or weed control at 80 g/ha of CCc1cc(C)cc(CC)c1C1=C(O)[C@H]2CC(=O)C[C@H]2C1=O (stereo in doubt) [I-a-4] ?
A) 20

These data points were gathered from patent US8367873B2.
